Each recorded value in this set is attributed to paper PMC3390971.

Experiment: Animal toxicity: maximum tolerated dose in mice
Assay type: in vivo
Conditions: male, CD-1 nu/nu, mouse, in vivo, ip
assayReadout: MTD at 28 days (µmol/kg)
Write the number in µmol/kg without appending the unit.

Problem: For the molecule shown here, Nc1n[n+]([O-])c2ccccc2[n+]1[O-] [TPZ, tirapazamine, reference compound] , give the reported MTD at 28 days.
Result: 178

----------
Assay: Animal toxicity: maximum tolerated dose in rats
Assay type: in vivo
Conditions: both, Sprague-Dawley, rat, in vivo, ip
assayReadout: MTD at 28 days (µmol/kg)
Note: unit µmol/kg is implicit; provide only the numeric part.

Problem: Requested field: MTD at 28 days. Item: Nc1n[n+]([O-])c2ccccc2[n+]1[O-] [TPZ, tirapazamine, reference compound]
Result: 178

----------
Assay: Animal toxicity: maximum tolerated dose in mice
Assay type: in vivo
Details: CD-1 nu/nu, mouse, in vivo, ip
assayReadout: MTD at 4 days (µmol/kg)
The figure you give is taken to be in µmol/kg; do not add the unit.

Problem: # query: MTD at 4 days of entry Nc1n[n+]([O-])c2ccccc2[n+]1[O-] [TPZ, tirapazamine, reference compound]
Result: 75
